Source of measurements: patent US20130224224A1

targetDesc: T1, human CX3CR1 (human, UniProt P49238 1-355)
T1 sequence: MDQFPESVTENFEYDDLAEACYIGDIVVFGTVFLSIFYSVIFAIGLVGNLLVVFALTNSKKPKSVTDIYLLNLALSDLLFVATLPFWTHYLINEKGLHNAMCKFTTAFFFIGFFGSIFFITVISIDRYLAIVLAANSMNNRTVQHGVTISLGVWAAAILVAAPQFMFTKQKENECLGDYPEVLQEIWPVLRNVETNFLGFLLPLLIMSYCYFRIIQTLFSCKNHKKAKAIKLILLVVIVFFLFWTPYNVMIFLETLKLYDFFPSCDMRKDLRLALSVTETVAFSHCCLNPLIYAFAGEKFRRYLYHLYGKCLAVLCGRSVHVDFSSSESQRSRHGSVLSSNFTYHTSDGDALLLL
measurementProtocol: cell-based or functional assay
observationType: % block, ligand induced chemotaxis (%)
Give bare numbers, in %.

Look over these answered cases.
binder	displayUnit	% block, ligand induced chemotaxis
CX3CR1BII00308 (VHH, also called CX3CR1BII308) VHH: DVQLVESGGGLVQPGGSLRLSCAASGSIFSSNAMAWYRQAPGKRRDLVAAINSVGVTKYADSVKGRFTISRDNSKNTVYLQMNSLRPEDTAVYYCTSDPRRGWDTRYWGQGTLVTVSS	%	89
CX3CR1BIIPMP66B02 (VHH, alexa647 label where used as labeled competitor (Table 23), also called CX3CR1BII66B02; C100CX3CR1BII66B02; not shown: C-terminal c-myc and His6 tags) VHH: EVQLVESGGGSVQAGESLRLSCAASGSIFSSNAMAWYRQAPGKRRDLVAAINSVGVTKYADSVKGRFTISRDNAKNTVYLQMNSLKPEDTAVYYCTSDPRRGWDTRYWGQGTQVTVSS	%	91
CX3CR1BII00307 (VHH, also called CX3CR1BII307) VHH: DVQLVESGGGLVQPGGSLRLSCAASGSIFSSTAMAWYRQAPGKRRDLVAAISTVGVTKYADSVKGRFTISRDNSKNTVYLQMNSLRPEDTAVYYCTSDPRRGWDTRYWGQGTLVTVSS	%	100

Lab book: % block, ligand induced chemotaxis of CX3CR1BII00306 (VHH, also called CX3CR1BII306) VHH: DVQLVESGGGLVQPGGSLRLSCAASGSIFSSTAMAWYRQAPGKRRDLVAAISSVGVTKYADSVKGRFTISRDNSKNTVYLQMNSLRPEDTAVYYCTSDPRRGWDTRYWGQGTLVTVSS noted as 95
